System: Pyricularia oryzae
Format: in vivo
Settings: METHOD 2 (unbanded)
PARAMETER: PYRIOR 1 d Prot/Foir PRCO
Numbers only.

Worked examples follow.
Cc1nsc(NC(=O)Cc2ccc3oc(CC(C)C)nc3c2)c1Cl [14(A3)]
90
Cc1nsc(NC(=O)Cc2ccc3ocnc3c2)c1Cl [1(A3)]
91
Cc1nsc(NC(=O)Cc2ccc3oc(C4CC4)nc3c2)c1Cl [21(A3)]
92
Cc1nsc(NC(=O)Cc2ccc3oc(C(F)(F)C(F)(F)C(F)(F)F)nc3c2)c1Cl [80(A3)]
91
CC=C(C)c1nc2cc(CC(=O)Nc3snc(C)c3Cl)ccc2o1 [47(A3)]
88

Hi there! I need PYRIOR 1 d Prot/Foir PRCO for each item below, if you can.
1. CC(C)=Cc1nc2cc(CC(=O)Nc3snc(C)c3Cl)ccc2o1 [46(A3)]
2. Cc1nsc(NC(=O)Cc2ccc3oc(SC(C)(C)C)nc3c2)c1Cl [224(A3)]
3. Cc1nsc(NC(=O)Cc2ccc3oc(N4CCOCC4)nc3c2)c1Cl [191(A3)]

1: 92; 2: 91; 3: 92

* * *

Tested on: Musca domestica
Conditions: 500 ppm by weight; knockdown assessed 15 minutes after treatment
PARAMETER: MUSCDO AC = Musca domestica (knockdown), score

Hi there! I need MUSCDO AC = Musca domestica (knockdown), score for each item below, if you can.
1. CC=Cc1nc2cc(CC(=O)Nc3snc(C)c3Cl)ccc2o1
2. Cc1nsc(NC(=O)Cc2ccc3oc(CC(C)C)nc3c2)c1Cl
3. CCCN(C(=O)Cc1ccc2oc(CC(C)(C)C)nc2c1)c1snc(C)c1Cl
4. CCSc1nc2cc(CC(=O)Nc3snc(C)c3Cl)ccc2o1

9 (9 indicates 80-100% mortality)
9 (9 indicates 80-100% mortality)
0 (0 indicates less than 40% mortality)
9 (9 indicates 80-100% mortality)

Hi there! I need MUSCDO AC = Musca domestica (knockdown), score for each item below, if you can.
1. Cc1nsc(NC(=O)Cc2ccc3oc(C4CCCC4)nc3c2)c1Cl
2. Cc1nsc(NC(=O)Cc2ccc3oc(N4CCOCC4)nc3c2)c1Cl
3. Cc1nsc(NC(=O)Cc2ccc3oc(Cl)nc3c2)c1Cl
4. Cc1nsc(N(C)C(=O)Cc2ccc3oc(CC(C)(C)C)nc3c2)c1Cl
5. COCCOCN(C(=O)Cc1ccc2oc(CC(C)(C)C)nc2c1)c1snc(C)c1Cl

1. 5 (5 indicates 40-79% mortality)
2. 5 (5 indicates 40-79% mortality)
3. 0 (0 indicates less than 40% mortality)
4. 0 (0 indicates less than 40% mortality)
5. 0 (0 indicates less than 40% mortality)

Hi there! I need MUSCDO AC = Musca domestica (knockdown), score for each item below, if you can.
1. Cc1nsc(NC(=O)Cc2ccc3oc(SCC#N)nc3c2)c1Cl
2. Cc1nsc(NC(=O)Cc2ccc3oc(-c4sccc4Cl)nc3c2)c1Cl
3. Cc1nsc(NC(=O)Cc2ccc3oc(COc4ccccc4)nc3c2)c1Cl
4. CSCCc1nc2cc(CC(=O)Nc3snc(C)c3Cl)ccc2o1

0 (0 indicates less than 40% mortality)
0 (0 indicates less than 40% mortality)
0 (0 indicates less than 40% mortality)
5 (5 indicates 40-79% mortality)

Recall and state the measured MUSCDO AC = Musca domestica (knockdown), score for "CCCc1nc2cc(CC(=O)Nc3snc(C)c3Cl)ccc2o1" .
9 (9 indicates 80-100% mortality)
